Values were extracted from ChEMBL document CHEMBL4325829.

List of IC50 tested on Protein deacetylase HDAC6 (Homo sapiens, UniProt Q9UBN7).
Sequence (Q9UBN7 whole entry): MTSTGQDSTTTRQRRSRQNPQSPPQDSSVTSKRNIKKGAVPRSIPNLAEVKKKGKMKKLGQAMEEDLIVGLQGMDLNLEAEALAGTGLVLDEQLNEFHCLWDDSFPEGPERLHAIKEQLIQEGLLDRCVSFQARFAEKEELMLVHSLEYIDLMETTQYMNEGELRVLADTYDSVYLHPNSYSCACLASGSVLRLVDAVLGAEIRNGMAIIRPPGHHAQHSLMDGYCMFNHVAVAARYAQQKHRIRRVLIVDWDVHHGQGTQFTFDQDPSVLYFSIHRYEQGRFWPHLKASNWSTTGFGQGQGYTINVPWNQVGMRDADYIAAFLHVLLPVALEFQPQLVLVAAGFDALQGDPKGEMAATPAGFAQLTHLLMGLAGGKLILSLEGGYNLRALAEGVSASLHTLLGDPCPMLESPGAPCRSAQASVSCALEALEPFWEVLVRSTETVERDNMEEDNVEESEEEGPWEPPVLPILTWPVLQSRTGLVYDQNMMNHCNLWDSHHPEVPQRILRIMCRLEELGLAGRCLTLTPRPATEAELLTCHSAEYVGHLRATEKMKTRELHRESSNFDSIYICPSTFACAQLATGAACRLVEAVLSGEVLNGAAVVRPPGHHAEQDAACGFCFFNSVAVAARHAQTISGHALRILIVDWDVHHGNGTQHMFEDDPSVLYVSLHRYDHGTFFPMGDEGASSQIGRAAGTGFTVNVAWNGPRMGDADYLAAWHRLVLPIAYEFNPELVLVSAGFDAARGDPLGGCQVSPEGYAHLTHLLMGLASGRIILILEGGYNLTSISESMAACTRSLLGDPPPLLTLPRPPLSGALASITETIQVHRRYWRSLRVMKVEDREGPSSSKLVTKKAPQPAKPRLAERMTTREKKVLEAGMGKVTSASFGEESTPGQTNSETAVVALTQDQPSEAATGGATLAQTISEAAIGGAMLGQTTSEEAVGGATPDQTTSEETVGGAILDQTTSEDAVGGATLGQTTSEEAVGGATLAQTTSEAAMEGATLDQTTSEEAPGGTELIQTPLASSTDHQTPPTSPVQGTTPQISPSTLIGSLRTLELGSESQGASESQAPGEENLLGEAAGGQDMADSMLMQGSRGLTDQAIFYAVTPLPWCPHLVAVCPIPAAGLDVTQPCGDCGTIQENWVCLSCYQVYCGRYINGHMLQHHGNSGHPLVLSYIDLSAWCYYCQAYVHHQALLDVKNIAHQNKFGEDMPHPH
Give just the number in µM; leave the unit off.

query: // map C=C(c1ccc(OC)c(/C=C/C(=O)NO)c1)c1cc(OC)c(OC)c(OC)c1 to recorded IC50 (system: Protein deacetylase HDAC6 (Homo sapiens, UniProt Q9UBN7))
result: 15

query: GET /values?readout=IC50&system=Protein deacetylase HDAC6 (Homo sapiens, UniProt Q9UBN7)&item= C=C(c1cc(OC)c(OC)c(OC)c1)c1ccc(OC)cc1/C=C/C(=O)NO
result: 5

query: Reported IC50 for Protein deacetylase HDAC6 (Homo sapiens, UniProt Q9UBN7), given C=C(c1cc(OC)c(OC)c(OC)c1)c1ccc2c(c1)cc(/C=C/C(=O)NO)n2C ?
result: 3.8

// next entry
query: Param readout = IC50; param system = Protein deacetylase HDAC6 (Homo sapiens, UniProt Q9UBN7); param query = C=C(c1cc(OC)c(OC)c(OC)c1)c1ccc2c(c1)c(/C=C/C(=O)NO)cn2C ; response: value
result: 6.9
